- Assay target: T1, Human IL-7R-hFc antigen (R&D systems) (human, UniProt P16871 21-239)
- T1 construct: Bought from R&D Systems; not shown: human Fc (hFc) of the bought fusion
- T1 sequence (looked up): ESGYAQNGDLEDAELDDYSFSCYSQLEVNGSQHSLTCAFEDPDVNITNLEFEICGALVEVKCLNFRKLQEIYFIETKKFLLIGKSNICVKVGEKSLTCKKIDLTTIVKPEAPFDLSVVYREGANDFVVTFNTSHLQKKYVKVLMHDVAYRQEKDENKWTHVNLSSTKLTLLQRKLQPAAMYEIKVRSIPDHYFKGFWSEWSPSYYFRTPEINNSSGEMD
- Test name: SPR (Biacore 2000/3000), IL-7R-hFc captured on anti-human Fc, antibody as analyte
For each record, write down the corresponding Kd.
One number for each entry, in nM.

Example cases with answers are listed next.
C2M3 (hIgG2ΔA) (antibody, V domains shown, the footnote is printed with **); Only variable domains are tied to C2M3) VH: EVQLVESGGGLVKPGGSLRLSCAASGFTFDDSVMHWVRQAPGKGLEWVSLVGWDGFFTYYADSVKGRFTISRDNAKNSLYLQMNSLRAEDTAVYYCARQGDYMGNNWGQGTLVTVSS VL: NFMLTQPHSVSESPGKTVTISCTRSSGSIDSSYVQWYQQRPGSSPTTVIYEDDQRPSGVPDRFSGSIDSSSNSASLTISGLKTEDEADYYCMQYDFHHLVFGGGTKLTVL	0.195
P2E11 Fab (Fab, V domains shown) VH: QVNLRESGGGLVKPGGSLRLSCAASGFTFDDSVMHWVRQAPGKGLEWLSLVGWDGFFTYYADSVKGRFTISRDNTKNLLYLQMNSLRAEDTAVYYCARQGDYMGDYWGQGTLVTVSS VL: NFMLTQPHSVSGSPGKTVTISCTRSSGSIDSSYVQWYQQRPGNSPTTVIYEDDQRPSGVPDRFSGSIDSSSNSASLTISGLVTEDEADYYCQSYDFHHLVFGGGTKLTVLC	3

# ---- query binder ----
// recorded Kd for P4B3 Fab (Fab, V domains shown) VH: QVTLKESGGGLVQPGGSLRLSCAASGFTFSNYGMHWVRQAPGKGLEWVSAISGSGGSTYYADSVKGRFTISRDNSKNTVYLQMNSLRDEDTAVYYCARDISGGGMDVWGQGTTVTVSS VL: NFMLTQPHSVSESPGKTVTISCTGSSGRIASSYVQWYQQRPGSAPTTVIYEDNQRPSGVPDRFSGSIDSSSNSASLTISGLKTEDEADYYCQSYASSSLWVFGGGTQLTVLS : 225
